The values you see were collected from PubChem BioAssay AID588342.

- SYSTEM_TESTED: Luciferin 4-monooxygenase (Photinus pyralis) (UniProt P08659)
- Sequence (P08659 whole entry, looked up): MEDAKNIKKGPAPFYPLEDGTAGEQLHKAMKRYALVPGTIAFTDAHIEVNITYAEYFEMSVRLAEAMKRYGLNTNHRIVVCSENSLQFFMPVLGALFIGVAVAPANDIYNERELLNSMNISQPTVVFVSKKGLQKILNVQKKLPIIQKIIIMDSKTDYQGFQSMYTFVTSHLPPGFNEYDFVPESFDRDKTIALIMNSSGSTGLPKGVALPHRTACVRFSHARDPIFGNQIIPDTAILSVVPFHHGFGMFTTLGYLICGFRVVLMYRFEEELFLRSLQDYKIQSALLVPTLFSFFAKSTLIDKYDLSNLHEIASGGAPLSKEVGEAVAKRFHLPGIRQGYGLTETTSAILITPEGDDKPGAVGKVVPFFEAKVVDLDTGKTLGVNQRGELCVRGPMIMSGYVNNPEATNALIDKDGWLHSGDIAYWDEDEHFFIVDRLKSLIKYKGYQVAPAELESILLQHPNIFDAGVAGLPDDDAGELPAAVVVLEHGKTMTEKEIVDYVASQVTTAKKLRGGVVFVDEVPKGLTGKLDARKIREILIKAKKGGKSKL
- EXPERIMENT_DESCRIPTION: qHTS profiling assay for firefly luciferase inhibitor/activator using purifed enzyme and Km concentrations of substrates (counterscreen for miR-21 project); note: nearly all actives have a fitted effect of over 55% in size
- EXPERIMENTAL_CONDITIONS: purified FLuc, luminescence inhibition; series mostly up to 57.5 µM
The campaign covered roughly 360,000 compounds. About 25,000 (6.9%) were called active. About 9% were inconclusive and are not listed. Calls come from the whole dose curve; as a rule, active = well fitted inhibition curve with a large enough effect; inconclusive = small, poorly fitted or top-dose-only effect; inactive = flat fitted curve, though single readings scatter. What follows is part of a selection rich in actives, with near analogues and random picks from the rest.
Labels: active, inactive

{"columns": ["MOLECULE", "DISCRETE_LABEL"],
 "data": [
  ["CCOc1ccc(S(=O)(=O)Nc2nccs2)cc1", "inactive"],
  ["COc1ccc(/C(N)=N/OC(=O)Cc2ccccc2)cc1", "active"],
  ["CN(c1ccccc1)S(=O)(=O)c1cccc(NC(=O)Cc2ccc(Cl)cc2)c1", "inactive"],
  ["COc1cccc(C(=O)NCCSc2ccc(Br)cc2)c1", "inactive"],
  ["COc1ccccc1OCCCn1c(-c2ccc(Cl)cc2)nc2ccccc2c1=O", "inactive"],
  ["Cc1oc2ncnc(N3CCOCC3)c2c1C(=O)NCCc1ccccc1", "inactive"],
  ["O=C(Nc1ccc(C(=O)OCc2cc(=O)n3nc(C4CC4)sc3n2)cc1)c1ccc(F)cc1", "inactive"],
  ["Cc1ccccc1NC(=O)CSc1nc2ccc(Nc3nc(N4CCOCC4)nc(N4CCOCC4)n3)cc2s1", "inactive"],
  ["COC(=O)c1ccc(CNC(=O)c2ccc3oc(C(C)C)nc3c2)cc1", "active"],
  ["CCCCNC(=O)CSc1nc2cc3c(cc2c(=O)n1CCCCCC(=O)NCc1ccc2c(c1)OCO2)OCO3", "inactive"],
  ["CCOCCCNC(=O)c1cc2c(=O)n3ccccc3nc2s1", "inactive"],
  ["COc1ccc(NC(=O)CCN2CCN(CCO)CC2)cc1", "inactive"],
  ["CCc1ccccc1N(C)C(=O)C1CCCN(c2ncnc3onc(-c4ccc(F)cc4)c23)C1 (stereo not given)", "inactive"],
  ["Cc1cc(C)cc(NC(=O)C2CCCN2S(=O)(=O)c2cccc3cccnc23)c1 (stereo not given)", "inactive"],
  ["COc1cc(/C=N/NC(=O)c2cc(C)n(-c3ccc(F)cc3)c2C)cc(OC)c1O", "active"],
  ["CCC(=O)OCCNc1nc(-c2ccccc2)nc2ccccc12", "inactive"],
  ["O=[N+]([O-])c1ccc2c(c1)C(N1CCOCC1)/C(=C/C1(O)CCCCC1)O2 (stereo not given)", "inactive"],
  ["Cn1c(C(=O)N2CCC(C(=O)N3CCN(c4ccccc4)CC3)CC2)cc2sccc21", "inactive"],
  ["COc1ccc(OCc2ccc(-c3nc4ccccc4c(=O)n3N)o2)cc1", "active"],
  ["CN(CC(=O)NNC(=O)CNC(=O)c1ccccc1Cl)S(=O)(=O)c1ccc(Cl)cc1", "inactive"],
  ["Cc1nn(CC(=O)N/N=C/c2ccc(F)cc2)c(C)c1[N+](=O)[O-]", "inactive"],
  ["COc1ccccc1N=C(C)C1=C(O)COC1=O", "inactive"],
  ["O=C(OCC(=O)N1CCN(C(=O)c2ccco2)CC1)c1ccc(Cl)c(Cl)c1", "inactive"],
  ["COc1ccccc1N=Cc1c(O)c2ccccc2oc1=O", "active"],
  ["COc1ccc(C(=O)NCCSc2ccccc2C)cc1", "active"],
  ["COc1cc(/C=N\\NC(=O)C2C(=O)NCC2c2ccccc2)cc(OC)c1O (stereo not given)", "inactive"],
  ["CCN(CC)S(=O)(=O)c1cc(C(=O)Nc2cc(S(=O)(=O)N3CCOCC3)ccc2N2CCCC2)ccc1F", "inactive"],
  ["CC(C)c1nc2cc(C(=O)NC(C)c3cnn(C)c3)ccc2o1 (stereo not given)", "inactive"],
  ["O=[N+]([O-])/C=C1\\CCCCCN1", "inactive"],
  ["COc1ccc(/C(N)=N/OC(=O)Oc2ccccc2)cc1", "inactive"],
  ["COc1ccc(-c2nc3ccccc3c(=O)n2CCc2ccc(O)cc2)cc1", "active"],
  ["Cc1ccc(CN2CCCOCCS2(=O)=O)cc1", "inactive"],
  ["N/C(=N\\OC(=O)/C=C/c1ccccc1)c1ccc(Br)cc1", "inactive"],
  ["O=C(Cn1c(=O)n(-c2ccc(F)cc2)c(=O)c2sccc21)Nc1cccc(C(F)(F)F)c1", "inactive"],
  ["C/C(=N\\Nc1nc(Nc2ccccc2)nc(N2CCOCC2)n1)c1cccs1", "active"],
  ["CCCNC(=O)C1CCN(c2nc3ccc(C)cc3[nH]2)CC1", "inactive"],
  ["O=C(O)c1ccccc1-c1ccccc1C(=O)Nc1cccc2ccccc12", "inactive"],
  ["COc1cccc(OCCn2c(-c3ccc(Br)cc3)nc3ccccc3c2=O)c1", "inactive"],
  ["Cn1cc[n+](C)c1COc1ccc(C=O)cc1", "inactive"],
  ["CN(CC(=O)Nc1ccc(Cl)cc1)CC(=O)Nc1cccc2ccccc12", "inactive"],
  ["CCn1c(C(=O)Nc2cc(Cl)ccc2C)cc2sc(Cl)cc21", "inactive"],
  ["O=C(COC(=O)c1ccco1)NCc1ccc(Cl)cc1", "inactive"],
  ["Cc1ccc(-n2c(SCC(=O)Nc3cccc(F)c3)nc3c(oc4ccccc43)c2=O)cc1C", "inactive"],
  ["N#Cc1ccc(C2N=C(c3ccccc3)NO2)cc1 (stereo not given)", "active"],
  ["CCNC(=O)c1cccc(NC(=O)C2CC(=O)N(CCc3ccccc3)C2)c1 (stereo not given)", "inactive"]
]}
